Molecular target: T1, recombinant human BAFF-Fc (Sino Biological) (human, UniProt Q9Y275 134-285)
T1 construct: Bought reagent; also called hBAFF; not shown: Fc moiety detected by anti-human Fc
T1 sequence (Q9Y275 134-285): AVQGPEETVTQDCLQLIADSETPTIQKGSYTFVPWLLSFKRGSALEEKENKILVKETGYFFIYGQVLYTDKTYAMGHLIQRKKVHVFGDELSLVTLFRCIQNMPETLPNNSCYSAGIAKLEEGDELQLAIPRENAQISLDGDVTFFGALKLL
Experiment: blocking ELISA, VNAR diluted with 0.5 nM BAFF-Fc; binding of BAFF-Fc to coated BCMA
property name: IC50 (nM)
Form entry: value (nM) — number only.

# binder, IC50 (nM)
rows = [
    ("ID2-101B10 (VNAR, Nurse shark VNAR single domain, monomer) VNAR: AARVDQTPQTITKETGESLTINCVLRDSNCALSSTYWYRKKSGSTNEESISKGGRYVETVNSGSKSFSLRINDLTVEDSGTYRCKVRIDPLLCNASYVKWDDVYGGGTVVTVNA", 10.5),
    ("ID2-101A05 (VNAR, Nurse shark VNAR single domain, tested as monomer) VNAR: AARVDQTPQTITKETGESLTINCVLRDNNCALSTTYWYRKKSGSTNEENISKGGRYVETVNSGSKSFSLRINDLTVEDSGTYRCKVSKDWLLCRDRGRRETDVYGDGTAVTVNA", 17.4),
    ("ID2-101A09 (VNAR, Nurse shark VNAR single domain, monomer) VNAR: AARVDQTPQTITKETGESLTINCVLRDNNCALSTTYWYRKKSGSTNEESISKGGRYVETVNSGSKSFSLRINDLTVEDSGTYRCKVREDPLMCRYYLDRYRDVYGGGTVVTVNA", 23.6),
    ("ID2-101B07 (VNAR, Nurse shark VNAR single domain, monomer) VNAR: AARVDQTPRSVTKETGESLTINCVLRDSICALSSTHWYRKKSGSTNEESISKGGRYVETVNSGSKSFSLRINDLTVEDSGTYRCKVHGGRSTGLCGDVLLAGDVYGGGTAVTVNA", 18.9),
]

Would you kindly look at the next entry?
What value of measured IC50 is listed for ID2-101A07 (VNAR, Nurse shark VNAR single domain, tested as monomer) VNAR: AARVDQTPQTITKETGESLTINCVLRDSNCALSNLYWYRKKSGSTNEESISLGGRYVETVNSGSKSFSLRINDLTVEDSGTYRCKVQLPYDPLTKECILGRMDVYGDGTAVTVNA ?
24.5
